meta.source: PubChem BioAssay AID1117361

- study-system: Protein Tat (Human immunodeficiency virus type 1 group M subtype B (isolate HXB2)) (UniProt P04608)
- Sequence (P04608 whole entry, looked up): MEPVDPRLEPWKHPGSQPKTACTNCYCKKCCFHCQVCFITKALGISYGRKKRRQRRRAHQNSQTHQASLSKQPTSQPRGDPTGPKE
- protocol: inhibitors of Tat binding to TAR RNA, dose response, counter-screen for Vif-APOBEC3G degradation inhibitor project, biochemical, fluorescence polarization, FAM-labeled TAR RNA (AID 1117361)
# maps each entry to its IC50

Past entries and their recorded results:
O=C(O)/C=C/C(=O)Nc1cccnc1	2.02 µM
O=C(N/N=C/c1cn(Cc2cccc(F)c2)c2ccccc12)c1cc(O)cc(O)c1	15 µM
Cc1cccc(-n2c(Cc3cc(=O)[nH]c(=O)[nH]3)nnc2SC(C)C)c1	28.2 µM
CC1=CN2C(=N)/C(=C/c3ccc([N+](=O)[O-])o3)C(=O)N=C2S1	12.2 µM
CC1CCN(S(=O)(=O)c2ccc(C(=O)NCc3ccc4c(c3)OCO4)cc2)CC1	95.7 µM

Lookup: Fill in the blank: the reported IC50 of CCCC(=O)N(CCc1ccc(OC)cc1)Cc1nc2ccccc2c(=O)[nH]1 is ____.
Found: 71.8 µM

Lookup: # lookup: IC50 of Cc1nn(-c2ccccn2)c2c1C(=O)C(Br)CC2 (stereo unspecified)
Found: 8.82 µM

Lookup: // IC50 lookup, key: CCCCC1=CC2=CC(=O)C(C)(OC(=O)C3CCCC3)C(=O)C2=CO1 (stereo unspecified)
Found: 53.6 µM

Lookup: What does the data say about its IC50? Entry: O=C(CSc1nnnn1-c1ccccc1)Nc1ncc2c(n1)CC(c1ccco1)CC2=O (stereo unspecified)
Found: 58.5 µM

Lookup: Returns the measured IC50 for the input molecule. Input: N#Cc1c(NC(=O)CSc2ncnc3sccc23)oc(-c2ccco2)c1-c1ccco1
Found: 2.52 µM

Lookup: Tell me the measured IC50 of Cc1c(Br)c(O)c(Br)c2sc(=O)oc12 , please.
Found: 25.3 µM

* * *

- study-system: Protein Tat (Human immunodeficiency virus type 1 group M subtype B (isolate HXB2))
- protocol: inhibitors of Tat binding to TAR RNA, dose response, counter-screen for Vif-APOBEC3G degradation inhibitor project, biochemical, fluorescence polarization, FAM-labeled TAR RNA (AID 1117361)
As shown below, each of these molecules has a reported IC50 value.

// worked examples, IC50 included
C/C(=C\C(=O)c1ccc(C)cc1)Nc1cccc(O)c1	10.4 µM
O=C(O)C1Nc2c(Cl)cc(Cl)c(Cl)c2C2C=CCC12 (stereo not drawn)	45.9 µM

Lookup: Fill blank: measured IC50 of the molecule CCc1c(C)sc(NC(=O)OC)c1C(=O)N1CCCCC1 is ____.
Found: 30.2 µM

Lookup: Need IC50 of CCc1c(C)sc(NC(=O)c2cc(-c3ccco3)on2)c1C#N , thanks.
Found: 52.4 µM

Lookup: Which IC50 is listed for COCCCNC(=O)/C(C#N)=C/c1ccc(OCC(=O)O)c(OC)c1 ?
Found: 34.4 µM

Lookup: Value lookup for IC50; key = Cc1cccc(-n2nc3c(c2NC(=O)c2ccc(Br)o2)CSC3)c1
Found: 85.9 µM

Lookup: For the molecule CN(C)c1ncc(C2=C(Cl)C(=O)C(N3CCCC3)=C(Cl)C2=O)s1 , what IC50 is on record?
Found: 1.54 µM

* * *

- study-system: Protein Tat (Human immunodeficiency virus type 1 group M subtype B (isolate HXB2))
- protocol: inhibitors of Tat binding to TAR RNA, dose response, counter-screen for Vif-APOBEC3G degradation inhibitor project, biochemical, fluorescence polarization, FAM-labeled TAR RNA (AID 1117361)
The compounds listed here are annotated with their IC50.

# count of solved cases: 5
COCCNC(=O)COC(=O)c1[nH]c(C)c(C(C)=O)c1C	35.4 µM
O=c1cc2c(=O)oc3cc(O)c(O)oc3c2c(O)c1O	12.3 µM
O=C(N/N=C/C=C/c1ccco1)c1cccs1	11.6 µM
CN(C)c1ccc(N2C(=O)CSC2=S)cc1	54.6 µM
CCCN1C(=O)S/C(=C\c2ccc(N3CCOCC3)cc2C)C1=O	1.92 µM

Lookup: I would be grateful if you could share the reported IC50 for Clc1ccc(OCc2nn3c(-c4ccco4)nnc3s2)c(Cl)c1 .
Found: 51.5 µM

Lookup: Could you share which IC50 value was measured for S=c1[nH]nc(C2CC2)n1Cc1ccco1 ?
Found: 45.9 µM

Lookup: Please give the measured IC50 for this compound: Cc1cc(C(=O)CCl)c(C)n1-c1c(C)n(C)n(-c2ccccc2)c1=O
Found: 20.3 µM

Lookup: Need IC50, item Oc1ccc(N=Cc2ccc(OCc3ccccc3)cc2)cc1
Found: 47.5 µM

Lookup: Any idea what IC50 was measured for O=C(O)C1OC(Oc2c(-c3ccc(O)c(O)c3)oc3cc(O)cc(O)c3c2=O)C(O)C(O)C1O (centres undefined) ?
Found: 2.12 µM

Lookup: Which IC50 value is on record for O=C(CN1CCN(S(=O)(=O)c2ccc(Cl)s2)CC1)NCc1ccc(Cl)cc1 ?
Found: 23.2 µM

Lookup: Recorded IC50 for CCOC(=O)c1c(N)sc(=S)c2c1CCC2 , please?
Found: 52 µM

Lookup: What value of measured IC50 is listed for COc1ccccc1NC(=O)CSc1nnc(Cc2cc(=O)[nH]c(=O)[nH]2)n1-c1ccccc1 ?
Found: 66.5 µM

Lookup: Requested read-out: IC50. Entry: O=[N+]([O-])c1cc2ccccc2c(O)c1O
Found: 56.8 µM
